These entries and their values trace back to paper PMC12040169.

Entries and their viability at 28.5 h, 10 µM values follow.
# measurement notes: in vitro
# details: human, hela cells, % viability
endpoint name: viability at 28.5 h, 10 µM (%)

[[record]]
compound = "CCC(CN1CCOCC1)NC(=O)Cc1ccc2c(c1)CCC2 (stereo not shown) [CBK282810]"
value_reported = 114

[[record]]
compound = "CSc1cccc(NC(=O)NCCN2CCNC2=O)c1 [CBK057191]"
value_reported = 103

[[record]]
compound = "OCc1ccccc1-c1nccnc1NCCc1cccnc1 [CBK037444]"
value_reported = 94

[[record]]
compound = "CN1CCN(C(=O)CCc2nc(-c3ccc(Cl)cc3)no2)CC1 [CBK268304]"
value_reported = 117

[[record]]
compound = "CC(C)(C)NC(=O)CNS(=O)(=O)c1ccccc1 [CBK265807]"
value_reported = 85.5

[[record]]
compound = "CCN(C(=O)Nc1ccc(-c2ccco2)cc1)C1CCOCC1 [CBK306916]"
value_reported = 95.8

[[record]]
compound = "OCCNc1nc(-c2ccccc2)cn2ccnc12 [CBK066379]"
value_reported = 97.6

[[record]]
compound = "OC(CNCC1COc2ccccc2O1)C(F)(F)F (stereo not shown) [CBK074834]"
value_reported = 102

[[record]]
compound = "O=C(CSc1ncccc1C(=O)O)c1ccccc1 [CBK273178]"
value_reported = 94.1

[[record]]
compound = "C=CCn1nnc(NC(=O)COc2ccccc2)n1 [CBK288131]"
value_reported = 108


* * *

# measurement notes: in vitro
# details: human, hela cells, % viability
endpoint name: viability at 28.5 h, 10 µM (%)

[[record]]
compound = "CCOC(=O)C1(C2CCCCC2)CCN(C(=O)c2cc(C)[nH]n2)CC1"
value_reported = 96.2

[[record]]
compound = "COc1ccc2[nH]c3c(c2c1)CCN(C=O)C31CCCN(CCC#N)C1 (stereo not shown)"
value_reported = 107

[[record]]
compound = "CCOc1ccc(-n2nnnc2SCC(=O)c2ccc(Cl)c(Cl)c2)cc1"
value_reported = 88.7

[[record]]
compound = "CC(NC(=O)COc1ccc(Cl)cc1)C(=O)O (stereo not shown)"
value_reported = 90.7


* * *

# measurement notes: in vitro
# details: human, hela cells, % viability
endpoint name: viability at 28.5 h, 10 µM (%)

[[record]]
compound = "O=C(c1ccc(NC2CC2)nc1)N1CCC(CN2CCOCC2)CC1"
endpoint_name = "viability at 28.5 h, 10 µM"
value_reported = 87.6

[[record]]
compound = "COc1cc(CNC2CCCCC2)ccc1OCC(N)=O"
endpoint_name = "viability at 28.5 h, 10 µM"
value_reported = 90.9

[[record]]
compound = "Cc1cc(C(=O)NCCCC2CCOC2)c2cccc(Cl)c2n1 (stereo not drawn)"
endpoint_name = "viability at 28.5 h, 10 µM"
value_reported = 91.7


* * *

Entries and their viability at 28.5 h, 10 µM values follow.
# measurement notes: in vitro
# details: human, hela cells, % viability
endpoint name: viability at 28.5 h, 10 µM (%)

[[record]]
compound = "COc1ccc(C(=O)N2CCC3(CCN(Cc4ccc(OC(F)(F)F)cc4)C3)C2)cc1OC (centres unmarked)"
unit_symbol = "%"
value_reported = 89

[[record]]
compound = "CCC(C)c1ccc(NC(S)=NCc2ccccn2)cc1 (centres unmarked)"
unit_symbol = "%"
value_reported = 89.2

[[record]]
compound = "O=C(NCC1CCCCC1)c1ccccc1-n1cccc1"
unit_symbol = "%"
value_reported = 91.7

[[record]]
compound = "Cc1ccc(S(=O)(=O)NCCNc2ccc([N+](=O)[O-])cc2C(F)(F)F)cc1"
unit_symbol = "%"
value_reported = 90.6

[[record]]
compound = "COC(=O)c1ccsc1NS(=O)(=O)c1ccc(F)cc1"
unit_symbol = "%"
value_reported = 89.7

